Hey, just so you know, these numbers are from patent US20090270407A1.

# Test A disease control rating listing for each entry below
Tested on: Erysiphe graminis f. sp. tritici
Test: Test A: wheat powdery mildew, preventive spray on wheat seedlings, visual disease rating
Details: 200 ppm; 100 = 100 % disease control, 0 = no disease control relative to controls
Measurement name: Test A disease control rating

[[record]]
compound = "COc1cc(Br)ccc1C1CC(C)(c2cccnc2)ON1C (centres unmarked) [Compound 86]"
measurement_name = "Test A disease control rating"
test_value = "91%"

[[record]]
compound = "CN1OC(C)(c2cccnc2)CC1c1cccc(Br)c1 (centres unmarked) [Compound 64]"
measurement_name = "Test A disease control rating"
test_value = "64%"

[[record]]
compound = "CN1OC(C)(c2cccnc2)CC1c1ccc(I)cc1 (racemic) [Compound 16]"
measurement_name = "Test A disease control rating"
test_value = "99%"

[[record]]
compound = "Cc1cccc(-c2ccc(C3CC(c4cccnc4)(C(F)(F)F)ON3C)cc2)c1C (racemic) [Compound 32]"
measurement_name = "Test A disease control rating"
test_value = "97%"

[[record]]
compound = "CN1OC(C)(c2cccnc2)CC1c1ccc(Oc2ccccc2)cc1 (racemic) [Compound 9]"
measurement_name = "Test A disease control rating"
test_value = "99%"

[[record]]
compound = "CN1OC(C)(c2cccnc2)CC1c1ccccc1F (centres unmarked) [Compound 79]"
measurement_name = "Test A disease control rating"
test_value = "0%"

[[record]]
compound = "CN1OC(C)(c2cccnc2)CC1c1ccc(-c2ccccc2)cc1 (racemic) [Compound 12]"
measurement_name = "Test A disease control rating"
test_value = "99%"

[[record]]
compound = "CN1OC(C)(c2cccnc2)CC1c1cccc2ccccc12 (mixture of isomers) [Compound 62]"
measurement_name = "Test A disease control rating"
test_value = "97%"

[[record]]
compound = "CN(C)c1ccc(C2CC(C)(c3cccnc3)ON2C)c2ccccc12 (mixture of isomers) [Compound 90]"
measurement_name = "Test A disease control rating"
test_value = "0%"

[[record]]
compound = "CN1OC(C)(c2cccnc2)CC1c1ccc(Br)cc1Br (centres unmarked) [Compound 84]"
measurement_name = "Test A disease control rating"
test_value = "94%"

[[record]]
compound = "CN1OC(C)(c2cccnc2)CC1c1ccc(Oc2ccc(F)cc2)cc1 (racemic) [Compound 20]"
measurement_name = "Test A disease control rating"
test_value = "91%"

[[record]]
compound = "CN1OC(C)(c2cccnc2)CC1c1cccc2c1OC(F)(F)O2 (mixture of isomers) [Compound 89]"
measurement_name = "Test A disease control rating"
test_value = "0%"

[[record]]
compound = "CN1OC(C)(c2cccnc2)CC1c1ccc(Cl)c(Cl)c1 (centres unmarked) [Compound 5]"
measurement_name = "Test A disease control rating"
test_value = "98%"

[[record]]
compound = "COc1cc(Br)ccc1C1CC(C)(c2cccnc2)ON1C (centres unmarked) [Compound 85]"
measurement_name = "Test A disease control rating"
test_value = "90%"

